- Test system: HCT-15
# if measured GI50 < 20 µM: Condition met  # else: Condition not met

Ask | hey, is GI50 for C=C/C(C)=C\CC1[C@](C)(O)CC[C@H]2C(C)(C)C(O)CC[C@]12C (some centres undefined) lower than 20 µM or not?
Reply | Condition not met

Ask | Item: Cc1cccc(-n2c(C)nc3ccc(NC(=S)Nc4ccccc4)cc3c2=O)c1
Reply | Condition not met

Ask | Request: Cc1c(O)c(OC2OC(CO)C(O)C(O)C2O)cc2c1CC[C@@H]1C2(C)C(=O)C[C@]2(C)[C@@H]([C@@](C)(O)C(O)CCC(C)(C)O)[C@H](O)C[C@@]12C (some centres undefined)
Reply | Condition not met

Ask | Repeat for the following molecule: CC1=Nc2c(ccc3c2C(=O)c2ccccc2C3=O)NC(c2cccc3c2CCC3)C1 (centres undefined)
Reply | Condition met

Ask | Can you check COC(=O)C1(C(=O)OC)N=C(C)OC1C(C)C (centres undefined) next?
Reply | Condition not met

Ask | Continue with COc1cc(S(=O)(=O)Nc2ccc(-c3csc(N4C(=O)C(C)SC4c4cccs4)n3)cc2)ccc1Cl (centres undefined)
Reply | Condition not met

Ask | Similarly, CN(C)CCCOCCn1c2c(c3ccccc31)CCCC2 ?
Reply | Condition met

Ask | Now give it for CC1(C)OC(CP(c2ccccc2)c2ccccc2)C(CP(c2ccccc2)c2ccccc2)O1 (centres undefined) too.
Reply | Condition met

Ask | Can you handle CCOC(=O)Oc1cc2ccsc2c2c1c1ccccc1n2C(=O)OCC next?
Reply | Condition not met
